- procedure.summary: in vivo
- experimental.conditions: bovine, Blood plasma HMB concentration
metric.name: concentration at 0 min (ng/g)
Form entry: value (ng/g) — number only.

The value of concentration at 0 min measured for the compound CSCCC(O)C(=O)O (stereo not shown) [HMB, 2-hydroxy-4-(methylthio) butanoic acid] turned out to be 0

---

- procedure.summary: Bioavailability of esters of methionine after spot dose to cows (Example 2)
- Format: in vivo, cow
- experimental.conditions: bovine, in vivo, 28 h
- Experimental: The bioavailability of the esters was evaluated. The samples were stored in a freezer. The procedure of (b1) was repeated using 72 g of methionine ethyl ester hydrochloride, prepared as detailed above • cyclohexyl methioninate: 122 g • methionine methyl ester hydrochloride: 73 g • sec butyl methioninate: 72 g
metric.name: [met] methionine concentration in blood plasma

The value of [met] methionine concentration in blood plasma measured for the compound CCCCCCOC(=O)[C@@H](N)CCSC [n-hexyl methioninate] turned out to be 0.35 mg/100 g of blood plasma

The value of [met] methionine concentration in blood plasma measured for the compound CCCCCCCCCCCCCCCCCCOC(=O)[C@@H](N)CCSC [n-octadecyl methioninate] turned out to be 0.38 mg/100 g of blood plasma

The value of [met] methionine concentration in blood plasma measured for the compound COC(=O)[C@@H](N)CCSC.Cl [Methionine methyl ester hydrochloride, methionine methyl ester hydrochloride] turned out to be 0.43 mg/100 g of blood plasma

The value of [met] methionine concentration in blood plasma measured for the compound CSCC[C@H](N)C(=O)OC1CCCCC1 [Cyclohexyl methioninate, cyclohexyl methioninate] turned out to be 0.38 mg/100 g of blood plasma

The value of [met] methionine concentration in blood plasma measured for the compound CCC(C)OC(=O)[C@@H](N)CCSC (some centres unmarked) [sec butyl methioninate] turned out to be 0.44 mg/100 g of blood plasma

---

- procedure.summary: in vivo
- experimental.conditions: bovine, Blood plasma HMB concentration
metric.name: concentration at 40 min (ng/g)
Form entry: value (ng/g) — number only.

The value of concentration at 40 min measured for the molecule CSCCC(O)C(=O)O (stereo not shown) [HMB, 2-hydroxy-4-(methylthio) butanoic acid] turned out to be 0

---

- procedure.summary: in vivo
- experimental.conditions: bovine, Blood plasma HMB concentration
metric.name: concentration at 75 min
Reply with the number, then its unit.

The value of concentration at 75 min measured for the compound CSCCC(O)C(=O)O (stereo not shown) [HMB, 2-hydroxy-4-(methylthio) butanoic acid] turned out to be 0 ng/g

---

- procedure.summary: Bioavailability of esters of methionine after spot dose to cows (Example 2)
- Assay type: in vivo, cow
- experimental.conditions: bovine, in vivo, 2 h
I'd be grateful if you could share measured [met] methionine concentration in blood plasma for these entries.

The value of [met] methionine concentration in blood plasma measured for the compound COC(=O)[C@@H](N)CCSC.Cl [Methionine methyl ester hydrochloride, methionine methyl ester hydrochloride] turned out to be 1.43 mg/100 g of blood plasma

The value of [met] methionine concentration in blood plasma measured for the compound CCCOC(=O)[C@@H](N)CCSC [n-propyl methioninate] turned out to be 1.70 mg/100 g of blood plasma

The value of [met] methionine concentration in blood plasma measured for the compound CCCCOC(=O)[C@@H](N)CCSC [n-butyl methioninate] turned out to be 0.74 mg/100 g of blood plasma

The value of [met] methionine concentration in blood plasma measured for the compound CSCC[C@H](N)C(=O)OC(C)C [Isopropyl methioninate, isopropyl methioninate] turned out to be 3.21 mg/100 g of blood plasma

The value of [met] methionine concentration in blood plasma measured for the compound CCCCCCCCCCCCCCCCCCOC(=O)[C@@H](N)CCSC [n-octadecyl methioninate] turned out to be 0.37 mg/100 g of blood plasma

The value of [met] methionine concentration in blood plasma measured for the compound CSCC[C@H](N)C(=O)OC(C)(C)C [Tertiary butyl methioninate, tertiary butyl methioninate] turned out to be 4.87 mg/100 g of blood plasma

The value of [met] methionine concentration in blood plasma measured for the compound CSCC[C@H](N)C(=O)OC1CCCCC1 [Cyclohexyl methioninate, cyclohexyl methioninate] turned out to be 2.27 mg/100 g of blood plasma

The value of [met] methionine concentration in blood plasma measured for the compound CCCCCCOC(=O)[C@@H](N)CCSC [n-hexyl methioninate] turned out to be 0.92 mg/100 g of blood plasma
